SYSTEM_TESTED: human mGlu 5a receptor (Homo sapiens, UniProt P41594)
Construct: expressed in transfected cells; host or cells: EBNA cells (transient transfection), membrane homogenates
Sequence (P41594 21-1180 isoform P41594-2 limits assumed): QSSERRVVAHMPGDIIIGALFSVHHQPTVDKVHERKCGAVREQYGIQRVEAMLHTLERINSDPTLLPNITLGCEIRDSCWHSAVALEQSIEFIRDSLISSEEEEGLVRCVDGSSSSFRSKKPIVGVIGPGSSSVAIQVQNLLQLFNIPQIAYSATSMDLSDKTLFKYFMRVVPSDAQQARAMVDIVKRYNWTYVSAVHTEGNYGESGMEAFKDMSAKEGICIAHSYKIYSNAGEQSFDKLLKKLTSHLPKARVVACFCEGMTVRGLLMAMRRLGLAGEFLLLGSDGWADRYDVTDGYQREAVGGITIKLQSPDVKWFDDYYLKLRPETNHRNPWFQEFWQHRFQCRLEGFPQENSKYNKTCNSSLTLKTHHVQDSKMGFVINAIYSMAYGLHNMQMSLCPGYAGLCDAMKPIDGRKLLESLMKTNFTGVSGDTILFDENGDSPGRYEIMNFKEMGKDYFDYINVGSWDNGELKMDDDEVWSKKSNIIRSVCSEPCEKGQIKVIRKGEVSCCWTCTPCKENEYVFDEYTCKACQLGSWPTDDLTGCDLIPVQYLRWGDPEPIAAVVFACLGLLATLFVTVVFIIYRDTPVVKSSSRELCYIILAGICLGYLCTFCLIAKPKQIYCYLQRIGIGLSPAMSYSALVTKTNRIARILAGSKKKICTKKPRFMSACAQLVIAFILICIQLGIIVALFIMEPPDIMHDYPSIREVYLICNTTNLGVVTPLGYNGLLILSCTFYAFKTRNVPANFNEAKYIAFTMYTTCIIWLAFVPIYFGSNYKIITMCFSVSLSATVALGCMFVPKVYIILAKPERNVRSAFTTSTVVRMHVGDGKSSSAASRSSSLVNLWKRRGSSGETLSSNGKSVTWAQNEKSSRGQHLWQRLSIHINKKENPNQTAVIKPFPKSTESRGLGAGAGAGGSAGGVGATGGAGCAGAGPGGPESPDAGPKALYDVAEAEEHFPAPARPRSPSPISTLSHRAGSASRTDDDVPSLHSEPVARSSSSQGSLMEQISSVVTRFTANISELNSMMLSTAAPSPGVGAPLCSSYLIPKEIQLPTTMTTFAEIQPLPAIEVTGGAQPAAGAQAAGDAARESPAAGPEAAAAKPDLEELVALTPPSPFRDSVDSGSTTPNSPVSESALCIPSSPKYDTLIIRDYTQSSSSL
PROCEDURE_SUMMARY: [3H]MPEP competition binding on membranes of EBNA cells transfected with human mGlu 5a receptor
TEST_CONDITIONS: competition with [3H]MPEP (2 nM), 1 h at 4° C., EBNA cell membranes
PARAMETER_MEASURED: Ki (nM)

Known results for compounds:
1. Cc1cc(-c2cncc(C(F)(F)F)c2)cc(C(=O)Nc2nc(C)cs2)n1: 196
2. Cc1cc(-c2ccc(F)cc2)c(C)c(C(=O)Nc2ccn(C)n2)n1: 714
3. Cc1cccc(NC(=O)c2cc(-c3cccnc3)cc(C)n2)n1: 20

[A] Cc1cc(NC(=O)c2cc(-c3cc(F)cc(F)c3)nc(C)n2)ccn1
[B] COc1cncc(-c2cc(C)nc(C(=O)Nc3ccn(C)n3)c2)c1
[C] Cc1cc(-c2cncc(F)c2)cc(C(=O)Nc2ccnc(Cl)c2)n1
Ask: Put these in order: smallest Ki first, largest last. // list labels; follow requested order
Reply: C, A, B
(C: 37 nM, A: 90 nM, B: 213 nM)

----------
SYSTEM_TESTED: human mGlu 5a receptor (Homo sapiens, UniProt P41594)
Construct: expressed in transfected cells; host or cells: EBNA cells (transient transfection), membrane homogenates
PROCEDURE_SUMMARY: [3H]MPEP competition binding on membranes of EBNA cells transfected with human mGlu 5a receptor
TEST_CONDITIONS: competition with [3H]MPEP (2 nM), 1 h at 4° C., EBNA cell membranes
PARAMETER_MEASURED: Ki (µM)

Known results for compounds:
1) Cc1cc(-c2cc(Cl)cc(Cl)c2)cc(C(=O)Nc2ccn(C)n2)n1: 0.004
2) Cc1nc(C(=O)Nc2csc(C)n2)cc(-c2cc(F)cc(F)c2)n1: 0.036
3) Cc1cc(-c2cc(C)nn2C)c(C)c(C(=O)Nc2csc(C)n2)n1: 0.127
4) Cc1cc(-c2ccc(F)cc2)cc(C(=O)Nc2ccn(C)n2)n1: 0.25
5) Cc1nc(C(=O)Nc2ccn(C)n2)cc(-c2cc(F)cc(F)c2)n1: 0.051
6) Cc1cc(-c2ccc(F)cc2)cc(C(=O)Nc2ccnc(C)n2)n1: 0.501

[a] Cc1cc(NC(=O)c2cc(-c3ccnc(C#N)c3)cc(C)n2)ccn1
[b] Cc1cc(-c2ccnc(Cl)c2)cc(C(=O)Nc2ccn(C)n2)n1
Ask: Select one. Lower Ki: a or b Mark your selection by writing its label.
Reply: b

[a] Cc1cc(-c2cncc(F)c2)cc(C(=O)Nc2ccc(Cl)cn2)n1
[b] Cc1cc(-c2cc(F)cc(F)c2)cc(C(=O)Nc2ncc(C)s2)n1
Ask: Of the two listed items, a and b , which carries the larger Ki figure? Mark your selection by writing its label.
Reply: b
(b: 0.929 µM, a: 0.033 µM)

----------
SYSTEM_TESTED: human mGlu 5a receptor (Homo sapiens)
Construct: expressed in transfected cells; host or cells: EBNA cells (transient transfection), membrane homogenates
PROCEDURE_SUMMARY: [3H]MPEP competition binding on membranes of EBNA cells transfected with human mGlu 5a receptor
TEST_CONDITIONS: competition with [3H]MPEP (2 nM), 1 h at 4° C., EBNA cell membranes, head prints no unit
PARAMETER_MEASURED: Ki (nM)

1) Cc1cc(-c2cccc(C#N)c2)cc(C(=O)Nc2nc(C)cs2)n1: 11
2) COc1ccccc1-c1cc(C)nc(C(=O)Nc2nc(C)cs2)c1: 25
3) Cc1cc(-c2cccnc2)cc(C(=O)Nc2nc(C)cs2)n1: 17
4) Cc1cc(-c2ccc(C#N)cc2)cc(C(=O)Nc2nc(C)cs2)n1: 253
5) Cc1cc(-c2cc(F)c(F)c(F)c2)cc(C(=O)Nc2nc(C)cs2)n1: 10
6) Cc1cc(-c2cccc(CO)c2)cc(C(=O)Nc2nc(C)cs2)n1: 17
7) Cc1cc(-c2cncc(F)c2)cc(C(=O)Nc2nc(C)cs2)n1: 25
8) Cc1cc(-c2cc(F)cc(F)c2)cc(C(=O)Nc2nc(C)cs2)n1: 7

[a] Cc1cc(-c2ccc(Cl)nc2)cc(C(=O)Nc2nc(C)cs2)n1
[b] Cc1cc(-c2ccc(F)c(F)c2)cc(C(=O)Nc2nc(C)cs2)n1
[c] Cc1cc(-c2cccc(OC(F)(F)F)c2)cc(C(=O)Nc2nc(C)cs2)n1
[d] Cc1cc(-c2cc(Cl)cc(Cl)c2)cc(C(=O)Nc2csc(C)n2)n1
[e] Cc1cc(-c2cccc(S(C)(=O)=O)c2)cc(C(=O)Nc2nc(C)cs2)n1
Ask: Sequence the entries by Ki, beginning with the highest number. // list labels; follow requested order
Reply: e, a, b, c, d
